Reference source for all entries: paper PMC10693208

- measured_target: EGFR^T790M (Homo sapiens, UniProt P00533, T790M)
- Sequence (P00533 25-1210 T790M): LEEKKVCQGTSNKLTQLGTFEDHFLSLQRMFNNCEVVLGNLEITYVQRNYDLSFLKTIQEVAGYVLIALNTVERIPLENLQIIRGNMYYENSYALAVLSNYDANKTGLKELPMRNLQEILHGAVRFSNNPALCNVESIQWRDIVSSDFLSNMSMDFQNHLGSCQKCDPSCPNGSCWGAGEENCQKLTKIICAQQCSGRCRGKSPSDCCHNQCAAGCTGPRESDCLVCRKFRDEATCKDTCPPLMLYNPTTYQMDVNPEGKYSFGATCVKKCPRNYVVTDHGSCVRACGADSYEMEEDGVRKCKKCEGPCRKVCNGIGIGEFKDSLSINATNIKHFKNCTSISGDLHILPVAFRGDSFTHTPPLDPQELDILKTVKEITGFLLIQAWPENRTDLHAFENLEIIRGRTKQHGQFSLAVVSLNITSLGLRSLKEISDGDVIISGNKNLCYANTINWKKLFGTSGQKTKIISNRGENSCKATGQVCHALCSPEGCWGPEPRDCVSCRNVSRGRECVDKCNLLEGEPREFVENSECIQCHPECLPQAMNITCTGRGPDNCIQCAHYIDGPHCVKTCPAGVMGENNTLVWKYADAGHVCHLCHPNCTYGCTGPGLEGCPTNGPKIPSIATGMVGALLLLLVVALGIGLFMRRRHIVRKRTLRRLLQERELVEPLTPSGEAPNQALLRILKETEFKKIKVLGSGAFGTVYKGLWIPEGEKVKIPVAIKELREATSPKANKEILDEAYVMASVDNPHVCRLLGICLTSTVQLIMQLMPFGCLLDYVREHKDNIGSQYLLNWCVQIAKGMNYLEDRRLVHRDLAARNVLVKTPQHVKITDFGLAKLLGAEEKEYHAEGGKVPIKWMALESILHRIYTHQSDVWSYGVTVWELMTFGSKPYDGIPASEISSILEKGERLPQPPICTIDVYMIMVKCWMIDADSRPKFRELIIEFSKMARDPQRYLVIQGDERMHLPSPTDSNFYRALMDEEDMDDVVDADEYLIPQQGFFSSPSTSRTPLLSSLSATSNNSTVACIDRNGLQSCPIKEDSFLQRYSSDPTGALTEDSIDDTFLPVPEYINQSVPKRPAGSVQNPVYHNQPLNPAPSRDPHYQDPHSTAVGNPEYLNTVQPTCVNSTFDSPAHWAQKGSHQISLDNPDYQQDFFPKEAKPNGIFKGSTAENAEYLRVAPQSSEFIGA
- experimental_details: In vitro EGFR kinase inhibition
- Type: biochemical
reported_metric: IC50 (nM)

structure_smiles_string	reported_metric	observed_result
Cn1cnc2c1c(=O)n(CC(=O)Nc1c(Cl)cccc1Cl)c(=O)n2C	IC50	269

----------
- measured_target: EGFR^WT (Homo sapiens)
- Sequence (P00533 25-1210): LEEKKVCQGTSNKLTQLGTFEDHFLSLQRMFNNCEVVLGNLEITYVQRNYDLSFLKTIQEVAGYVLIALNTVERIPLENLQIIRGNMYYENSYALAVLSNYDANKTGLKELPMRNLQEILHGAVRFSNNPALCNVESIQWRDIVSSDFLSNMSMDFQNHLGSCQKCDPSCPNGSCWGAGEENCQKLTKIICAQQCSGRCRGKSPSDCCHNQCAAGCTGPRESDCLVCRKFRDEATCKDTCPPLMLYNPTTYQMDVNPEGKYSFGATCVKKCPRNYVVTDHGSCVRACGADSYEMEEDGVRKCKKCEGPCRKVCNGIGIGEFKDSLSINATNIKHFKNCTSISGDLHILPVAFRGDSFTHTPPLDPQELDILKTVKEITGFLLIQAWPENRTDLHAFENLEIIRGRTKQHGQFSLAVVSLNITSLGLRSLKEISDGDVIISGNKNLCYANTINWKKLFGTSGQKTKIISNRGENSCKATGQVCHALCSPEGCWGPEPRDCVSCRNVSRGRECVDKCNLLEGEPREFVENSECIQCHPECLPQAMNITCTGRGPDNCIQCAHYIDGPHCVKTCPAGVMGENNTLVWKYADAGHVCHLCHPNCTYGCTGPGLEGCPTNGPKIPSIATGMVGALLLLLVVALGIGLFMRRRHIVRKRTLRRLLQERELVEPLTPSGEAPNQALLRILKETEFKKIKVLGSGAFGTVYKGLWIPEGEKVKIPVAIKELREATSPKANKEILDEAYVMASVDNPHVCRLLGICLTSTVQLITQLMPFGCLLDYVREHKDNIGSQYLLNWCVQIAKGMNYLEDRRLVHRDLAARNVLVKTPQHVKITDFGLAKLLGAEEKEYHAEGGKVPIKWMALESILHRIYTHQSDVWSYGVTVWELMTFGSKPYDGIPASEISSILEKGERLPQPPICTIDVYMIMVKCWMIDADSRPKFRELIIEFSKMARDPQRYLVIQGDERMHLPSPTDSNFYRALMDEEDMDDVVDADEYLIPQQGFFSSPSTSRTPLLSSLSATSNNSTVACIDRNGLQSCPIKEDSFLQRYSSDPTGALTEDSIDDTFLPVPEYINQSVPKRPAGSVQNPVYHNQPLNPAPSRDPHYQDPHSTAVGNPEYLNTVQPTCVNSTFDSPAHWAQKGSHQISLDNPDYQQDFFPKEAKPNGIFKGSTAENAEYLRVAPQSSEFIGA
reported_metric: IC50 (nM)

structure_smiles_string	observed_result
Cn1cnc2c1c(=O)n(CC(=O)Nc1c(Cl)cccc1Cl)c(=O)n2C	56.9
